B1: FBXO39 (parent)
chain: PSRVHASEVESAVWYVKKFGRYLE

- Variants of: B1
- Assay comment: protein stability index of a GFP-peptide fusion (GPS, HEK-293T) (PSI 1-6); higher = more stable;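 note: lentivirally expressed fusions sorted by FACS into six bins by GFP to DsRed ratio, PSI derived from sequencing read proportions per bin multiplied by bin number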
- Applied conditions: c terminus: a fixed tail appended
Readout name: protein stability index

Mutation code	Assay result
V13D	2.9
W14G	2.89
V13T	1.96
V4K	1.63
S11N	1.97
V9D	2.96

For each of the items listed, what is its protein stability index?
1. Y15M
2. G20Q
3. K18N
4. K18A

a:
1. 2.9
2. 2.55
3. 1.88
4. 1.65

For each of the items listed, what is its protein stability index?
1. V16Q
2. L23H

a:
2.5
2.45

For each of the items listed, what is its protein stability index?
1. S11A
2. R3T
3. P1G
4. V16G
5. P1Y
6. F19E
7. L23Q
8. Y15E

a:
1. 2.03
2. 3.32
3. 2.83
4. 2.81
5. 1.63
6. 3.76
7. 2.74
8. 2.45

For each of the items listed, what is its protein stability index?
1. F19G
2. L23R

a:
3.17
2.5
